- Tested on: H. influenzae ATCC49247
- Test Description: MIC, microdilution broth method (NCCLS)
- Assay type: cell-based
- Run Parameters: E: H. influenzae ATCC49247, 35° C., 16-20 hours
Mark YES for MIC under 2 µg/mL, NO if at or over.

>  <Compound>
CCC1OC(=O)C(C)(F)C(=O)C(C)C(OC2OC(C)CC(N(C)C)C2O)C(C)(OC(=O)NCC=Cc2ccc(-c3cccnn3)cc2)CC(C)C(=O)C(C)C2NC(=O)OC12C (stereo not shown) [Compound 99]

>  <Class Name>
YES

$$$$
>  <Compound>
CC[C@H]1OC(=O)[C@H](C)C(=O)[C@H](C)[C@@H](O[C@@H]2O[C@H](C)C[C@H](N(C)C)[C@H]2O)[C@](C)(OC(=O)NCCNCc2cccnc2)C[C@@H](C)C(=O)[C@H](C)[C@H]2NC(=O)O[C@@]21C [Compound 116]

>  <Class Name>
NO

$$$$
>  <Compound>
CC[C@H]1OC(=O)[C@H](C)C(=O)[C@H](C)[C@@H](O[C@@H]2O[C@H](C)C[C@H](N(C)C)[C@H]2O)[C@](C)(OC(=O)NC/C=C/c2ccccc2)C[C@@H](C)C(=O)[C@H](C)[C@H]2NC(=O)O[C@@]21C [Compound 4]

>  <Class Name>
YES

$$$$
>  <Compound>
CCC1OC(=O)C(C)(F)C(=O)C(C)C(OC2OC(C)CC(N(C)C)C2O)C(C)(OC(=O)NCC=Cc2ccc(-c3ncccn3)cc2)CC(C)C(=O)C(C)C2NC(=O)OC12C (stereo not shown) [Compound 89]

>  <Class Name>
NO

$$$$
>  <Compound>
CC[C@H]1OC(=O)[C@H](C)C(=O)[C@H](C)[C@@H](O[C@@H]2O[C@H](C)C[C@H](N(C)C)[C@H]2O)[C@](C)(OC(=O)NCc2cccc(-c3ncccn3)c2)C[C@@H](C)C(=O)[C@H](C)[C@H]2NC(=O)O[C@@]21C [Compound 65]

>  <Class Name>
NO

$$$$

[Q] Please check: MIC for CC[C@H]1OC(=O)[C@H](C)C(=O)[C@H](C)[C@@H](O[C@@H]2O[C@H](C)C[C@H](N(C)C)[C@H]2O)[C@](C)(OC(=O)NC/C=C/c2ccc(-n3cccn3)c(F)c2)C[C@@H](C)C(=O)[C@H](C)[C@H]2NC(=O)O[C@@]21C [Compound 58] , strictly under 2 µg/mL or not?
[A] NO

[Q] Please check: MIC for CC[C@H]1OC(=O)[C@H](C)C(=O)[C@H](C)[C@@H](O[C@@H]2O[C@H](C)C[C@H](N(C)C)[C@H]2O)[C@](C)(OC(=O)NCCNC(=O)c2cnc3ccccc3c2)C[C@@H](C)C(=O)[C@H](C)[C@H]2NC(=O)O[C@@]21C [Compound 113] , strictly under 2 µg/mL or not?
[A] NO

[Q] Please check: MIC for CC[C@H]1OC(=O)[C@H](C)C(=O)[C@H](C)[C@@H](O[C@@H]2O[C@H](C)C[C@H](N(C)C)[C@H]2O)[C@](C)(OC(=O)NCC2CC(c3ccc(-c4ncccn4)cc3)C2)C[C@@H](C)C(=O)[C@H](C)[C@H]2NC(=O)O[C@@]21C (stereo partly shown) [Compound 135] , strictly under 2 µg/mL or not?
[A] NO

[Q] Please check: MIC for CC[C@H]1OC(=O)[C@H](C)C(=O)[C@H](C)[C@@H](O[C@@H]2O[C@H](C)C[C@H](N(C)C)[C@H]2O)[C@](C)(OC(=O)NCCCCc2ccccc2)C[C@@H](C)C(=O)[C@H](C)[C@H]2NC(=O)O[C@@]21C [Compound 9] , strictly under 2 µg/mL or not?
[A] NO

[Q] Please check: MIC for CC[C@H]1OC(=O)[C@H](C)C(=O)[C@H](C)[C@@H](O[C@@H]2O[C@H](C)C[C@H](N(C)C)[C@H]2O)[C@](C)(OC(=O)NC/C=C/c2ccc3cccnc3c2)C[C@@H](C)C(=O)[C@H](C)[C@H]2NC(=O)O[C@@]21C [Compound 47] , strictly under 2 µg/mL or not?
[A] YES

Ref: patent US6613747B2
